Just for reference, patent US20240390512A1 is where these values come from.

# TEST_TARGET: T1, cynomolgus monkey CDH6, on cells (cynomolgus monkey, UniProt P55285 54-790 (human entry))
# T1 construct: Expressed from pcDNA3.1-cynoCDH6; also called cynoCDH6
# T1 sequence: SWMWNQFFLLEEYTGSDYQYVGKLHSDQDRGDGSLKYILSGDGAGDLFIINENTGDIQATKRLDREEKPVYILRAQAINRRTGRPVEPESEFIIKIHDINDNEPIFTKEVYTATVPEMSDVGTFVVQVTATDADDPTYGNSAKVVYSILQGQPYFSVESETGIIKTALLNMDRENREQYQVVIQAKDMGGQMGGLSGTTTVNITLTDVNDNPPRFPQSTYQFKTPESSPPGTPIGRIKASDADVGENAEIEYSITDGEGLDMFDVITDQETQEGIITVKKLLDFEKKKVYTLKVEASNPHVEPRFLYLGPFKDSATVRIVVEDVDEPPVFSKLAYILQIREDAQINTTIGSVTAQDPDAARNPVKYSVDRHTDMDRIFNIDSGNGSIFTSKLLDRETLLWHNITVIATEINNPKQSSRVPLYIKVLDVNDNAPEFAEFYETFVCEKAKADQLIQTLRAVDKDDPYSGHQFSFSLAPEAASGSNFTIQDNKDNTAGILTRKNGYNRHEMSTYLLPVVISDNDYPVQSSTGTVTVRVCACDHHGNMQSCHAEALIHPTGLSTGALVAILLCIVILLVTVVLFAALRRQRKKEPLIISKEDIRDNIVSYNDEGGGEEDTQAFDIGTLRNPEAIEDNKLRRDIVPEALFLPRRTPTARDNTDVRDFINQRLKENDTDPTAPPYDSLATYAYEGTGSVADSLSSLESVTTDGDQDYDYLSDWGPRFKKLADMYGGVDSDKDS
# PROCEDURE_SUMMARY: Cell-ELISA and flow cytometry screening with hybridoma supernatants on transfected cells

BINDER	binding result
rat anti-human CDH6 monoclonal antibody rG055 (antibody, rat IgG2b, V domains shown, Purified from hybridoma supernatant; also called rG055 antibody) VH: EVQLQESGPGLVRPSQSLSLSCSVTDYSITSNYWGWIRRFPGNKMEWMGYITYSGYTSYNPSLQSRISITRDTSKNQFFLQLNSVTAEDTATYYCARSINHGGYSYVVDAWGPGASVTVSS VL: DVQMTHSPSYLAASPGESVSISCKTSKNISNYLVWYQQKPGEAYKLLIYSGSTLQSGTPSRFSGSGSGTDFTLTIRSLEPEDFGLYFCQQYYEKPFTFGSGTKLEIKR	binds
rat anti-human CDH6 monoclonal antibody rG061 (antibody, rat IgG2b, V domains shown, Purified from hybridoma supernatant; also called rG061 antibody) VH: EVQLQESGPGLVKPSQSLSLTCSVTGYSITTYYWGWIRKFPGNKMEWMGYISYSGRTSYNPSLKSRMSITRDASKNQFFLQLNSVTTDDTATYYCARSPINHGGYWYFDFWGPGTMVTVSS VL: DVQMTQSPSYLAASPGESVSISCKATKSISNYLAWYQQKPGEAYKVLIYSGSTLQSGTPSRFSGSGSGTDFTLTIRSLEPEDFGLYSCQQYYEKPLTFGSGTKLEIKR	binds
rat anti-human CDH6 monoclonal antibody rG019 (antibody, rat IgG2b, V domains shown, Purified from hybridoma supernatant; also called rG019 antibody) VH: QVQLQQSGAELVKPGSSVKISCKASGYTFTRNFMHWIKQQPGNGLEWIGWIYCGDGETEYNQKFNGKATLTADRSSSTAYMELSRLTSEDSAVYFCARGVYGGFAGGYFDFWGQGVMVTVSS VL: DIQMTQSPSLLSASVGDRVTLNCKASQNIYKNLAWYQQKLGEGPKLLIYDANTLQTGIPSRFSGSGSGSDFTLTISSLQPEDVATYFCQQYYSGWAFGGVTNLELKRA	binds
rat anti-human CDH6 monoclonal antibody rG056 (antibody, rat IgG2b, V domains shown, Purified from hybridoma supernatant; also called rG056 antibody) VH: EVQLQESGPGLVKPSQSLSLTCSVTDYSITTYFWGWIRKFPGNKMEWMGYMSYRGGTSYNPSLKSRISITRDTSKNQFFLQLNSVTTEDTATYYCARCPNYGGHSLVFDYWGQGVMVTVSS VL: DVQMTQSPSSLAASPGESVSISCRATKSIGIYLAWYQQKPGKTFKLLIYSGSTLQSGTPSRFSGSGSGTDFTLTIRSLEPEDFGLYFCQQFYENPFTFGSGTKLEIRR	binds
